test: Cytotoxicity against African green monkey Vero E6 cells infected with Heartland virus assessed as reduction in cell viability; assay type: toxicity, cell-based, Vero C1008; settings: chlorocebus sabaeus

# chemicalSmiles, CC50
measured = [
    ("Nc1ncnn2c([C@@H]3N[C@H](CO)[C@@H](O)[C@H]3O)ccc12", "13 µM"),
]

* * *

assay: Selectivity index, ratio of CC50 for cytotoxicity against African green monkey Vero 76 cells infected with Zika virus assessed as reduction in cell viability by neutral red dye based analysis to EC50 for antiviral activity against Zika virus infected in African green monkey Vero 76 cells assessed as reduction in virus-induced cytopathic effect by neutral red based spectrophotometric analysis; format: toxicity; conditions: read-out: Ratio CC50/EC50
Below, each entry is listed alongside its reported selectivity ratio.

# compound, valuePrefix, selectivity ratio
data = [
    ("Nc1ncnn2c([C@@H]3N[C@H](CO)[C@@H](O)[C@H]3O)ccc12", "=", 12),
    ("Nc1ncnc2c([C@@H]3N[C@H](CO)[C@@H](O)[C@H]3O)n[nH]c12", "=", 1.1),
    ("Nc1ncnc2c([C@@H]3N[C@H](CO)[C@@H](O)[C@H]3O)c[nH]c12 [GALIDESIVIR]", ">", 3),
]
